# Tested on: Cortical neurone
# assay protocol: Antiepileptic actvity in C57BL/6 mouse Primary cortical neuron assessed as reduction in 4-AP-induced excitability measured for 8 mins by Fluo-8/AM staining based FLIPR assay
# Format: functional, cell-based
# test settings: C57BL/6, Cortical neurone
Criterion: IC50 strictly under 3000 nM. Met: satisfied. Not met: not satisfied.

> print(dat)
                                 item.smiles            cat
 1  O=c1cc(Cc2ccc(Cl)cc2)[nH]c2nc(Cc3ccc(F)cc3)nn12  not satisfied
 2  Cc1ccc(Cc2nc3[nH]c(-c4ccc(Cl)cc4)cc(=O)n3n2)cc1  not satisfied
 3  Cc1ccc(Cc2nc3[nH]c(-c4ccccc4)cc(=O)n3n2)cc1      satisfied
 4  O=c1cc(-c2ccccc2)[nH]c2nc(Cc3ccccc3)nn12      satisfied
 5  CCCCCCc1nc2[nH]c(-c3ccc(Cl)cc3)cc(=O)n2n1  not satisfied
 6  O=c1cc(-c2ccc(Cl)cc2)[nH]c2nc(-c3ccccc3)nn12      satisfied
 7  Cc1ccc(-c2nc3[nH]c(Cc4ccccc4)cc(=O)n3n2)cc1      satisfied
 8  O=c1cc(-c2ccccc2)[nH]c2nc(Cc3ccc(Cl)cc3)nn12      satisfied
 9  O=c1cc(Cc2ccccc2)[nH]c2nc(Cc3ccc(Cl)cc3)nn12  not satisfied
10  Cc1ccc(-c2nc3[nH]c(-c4ccccc4)cc(=O)n3n2)cc1  not satisfied
11  CCCCCc1nc2[nH]c(-c3ccc(Cl)cc3)cc(=O)n2n1  not satisfied
12  O=c1cc(Cc2ccc(Cl)cc2)[nH]c2nc(-c3ccccc3)nn12      satisfied
13  O=c1cc(-c2ccccc2)[nH]c2nc(Cc3ccc(F)cc3)nn12      satisfied
14  Cc1ccc(Cc2nc3[nH]c(Cc4ccccc4)cc(=O)n3n2)cc1      satisfied

###

# System: Mus musculus
# assay protocol: Anticonvulsant activity in Kunming mouse assessed as reduction in ScPTZ-induced seizure at 100 mg/kg, ip administered before 30 mins of ScPTZ stimulation
# Type: functional, organism-based
Active and inactive are the calls of the source. The rule behind the calls is not given here.
Possible outcomes: active, inactive

> print(dat)
                                item.smiles       cat
1  Cc1ccc(Cc2cc(=O)n3nc(Cc4ccccc4)nc3[nH]2)cc1  inactive
2  CCCCCCCc1nc2[nH]c(-c3ccc(Cl)cc3)cc(=O)n2n1  inactive
3  O=c1cc(Cc2ccc(Cl)cc2)[nH]c2nc(Cc3ccccc3)nn12  inactive
4   CCCCc1nc2[nH]c(-c3ccc(Cl)cc3)cc(=O)n2n1  inactive
5  Cc1ccc(-c2nc3[nH]c(Cc4ccccc4)cc(=O)n3n2)cc1    active
6  O=c1cc(-c2ccc(Cl)cc2)[nH]c2nc(Cc3ccccc3)nn12  inactive

###

# assay protocol: Neurotoxicity in ip dosed Kunming mouse assessed as reduction in equilibrium measured after 30 mins by rotarod test
# Assay type: toxicity, organism-based
# test settings: in vivo
parameter: TD50 at 0.5 h (mg/kg)

> print(dat)
                                item.smiles  endpoint.result
1  O=c1cc(-c2ccccc2)[nH]c2nc(Cc3ccc(F)cc3)nn12              261
2  Cc1ccc(-c2nc3[nH]c(Cc4ccccc4)cc(=O)n3n2)cc1              372
3  Cc1ccc(Cc2nc3[nH]c(-c4ccccc4)cc(=O)n3n2)cc1              281
4  O=c1cc(Cc2ccc(Cl)cc2)[nH]c2nc(-c3ccccc3)nn12              548
5  O=c1cc(-c2ccccc2)[nH]c2nc(Cc3ccc(Cl)cc3)nn12              211

###

# assay protocol: Protective index, ratio of TD50 for neurotoxicity in ip dosed Kunming mouse to ED50 for anticonvulsant activity in ip dosed Kunming mouse
# Assay type: toxicity, organism-based
# test settings: in vivo, read-out: Ratio TD50/ED50
Criterion: selectivity ratio strictly less than 4. Met: YES. Not met: NO.

> print(dat)
                                item.smiles  cat
1  O=c1cc(-c2ccccc2)[nH]c2nc(Cc3ccc(F)cc3)nn12  YES
2  O=c1cc(Cc2ccc(Cl)cc2)[nH]c2nc(-c3ccccc3)nn12   NO
3  O=c1cc(-c2ccccc2)[nH]c2nc(Cc3ccc(Cl)cc3)nn12  YES
4  Cc1ccc(-c2nc3[nH]c(Cc4ccccc4)cc(=O)n3n2)cc1   NO
5  Cc1ccc(Cc2nc3[nH]c(-c4ccccc4)cc(=O)n3n2)cc1   NO

###

# study target: GABA-A receptor; alpha-1/beta-2/gamma-2 (Homo sapiens, UniProt P14867+P18507+P47870)
# Sequence (P14867 whole entry): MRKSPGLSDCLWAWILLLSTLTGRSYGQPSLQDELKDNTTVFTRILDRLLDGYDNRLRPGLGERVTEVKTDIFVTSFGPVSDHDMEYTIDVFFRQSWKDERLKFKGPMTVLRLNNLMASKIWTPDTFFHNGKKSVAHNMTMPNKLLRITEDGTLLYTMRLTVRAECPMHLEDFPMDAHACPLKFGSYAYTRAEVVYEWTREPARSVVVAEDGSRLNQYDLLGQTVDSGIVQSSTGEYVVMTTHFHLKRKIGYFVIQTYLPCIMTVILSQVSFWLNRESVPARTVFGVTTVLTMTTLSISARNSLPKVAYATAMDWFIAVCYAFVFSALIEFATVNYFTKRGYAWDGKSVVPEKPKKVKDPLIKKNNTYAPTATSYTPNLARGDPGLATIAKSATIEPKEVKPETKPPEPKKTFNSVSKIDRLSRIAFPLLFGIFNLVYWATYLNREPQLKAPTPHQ
# Sequence (P47870 whole entry): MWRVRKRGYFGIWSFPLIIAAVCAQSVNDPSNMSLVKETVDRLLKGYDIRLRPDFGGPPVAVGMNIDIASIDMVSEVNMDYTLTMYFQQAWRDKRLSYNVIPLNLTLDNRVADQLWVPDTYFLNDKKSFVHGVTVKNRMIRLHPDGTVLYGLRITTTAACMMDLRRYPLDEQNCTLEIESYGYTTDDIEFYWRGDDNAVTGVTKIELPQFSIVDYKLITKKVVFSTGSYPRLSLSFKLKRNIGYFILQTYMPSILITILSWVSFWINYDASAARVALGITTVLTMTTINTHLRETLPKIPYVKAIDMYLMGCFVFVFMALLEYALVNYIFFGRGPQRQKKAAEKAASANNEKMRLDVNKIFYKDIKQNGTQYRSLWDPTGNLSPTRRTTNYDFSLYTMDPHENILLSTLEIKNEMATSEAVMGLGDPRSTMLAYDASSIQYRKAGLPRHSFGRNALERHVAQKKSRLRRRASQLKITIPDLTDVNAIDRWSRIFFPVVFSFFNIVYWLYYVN
# Sequence (P18507 whole entry): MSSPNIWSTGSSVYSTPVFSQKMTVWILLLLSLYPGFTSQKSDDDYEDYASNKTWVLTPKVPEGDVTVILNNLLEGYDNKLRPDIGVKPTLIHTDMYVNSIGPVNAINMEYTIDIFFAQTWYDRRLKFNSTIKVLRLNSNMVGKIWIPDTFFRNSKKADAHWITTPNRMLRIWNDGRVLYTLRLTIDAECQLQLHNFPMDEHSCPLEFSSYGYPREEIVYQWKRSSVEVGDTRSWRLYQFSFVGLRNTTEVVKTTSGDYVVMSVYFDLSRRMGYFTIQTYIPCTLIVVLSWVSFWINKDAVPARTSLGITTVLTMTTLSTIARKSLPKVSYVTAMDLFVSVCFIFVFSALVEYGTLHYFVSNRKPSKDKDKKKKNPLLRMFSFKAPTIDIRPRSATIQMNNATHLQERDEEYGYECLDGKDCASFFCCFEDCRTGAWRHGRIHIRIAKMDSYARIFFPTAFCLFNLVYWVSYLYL
# assay protocol: Activation of recombinant human GABA receptor alpha1beta2gamma2 expressed in CHO cells in presence of GABA and measured for 120 secs by FMP dye based FLIPR assay
# Type: cell-based
parameter: EC50 (µM)

> print(dat)
                                item.smiles  parameter  endpoint.result
1  Cc1ccc(-c2nc3[nH]c(Cc4ccccc4)cc(=O)n3n2)cc1       EC50               12
2  O=c1cc(Cc2ccc(Cl)cc2)[nH]c2nc(-c3ccccc3)nn12       EC50             3.08

###

# System: Mus musculus
# assay protocol: Anticonvulsant activity in Kunming mouse assessed as reduction in ScPTZ-induced seizure at 100 mg/kg, ip administered before 30 mins of ScPTZ stimulation
# Assay type: functional, organism-based
Calls of active or inactive are those of the source. The rule behind the calls is not given here.
Labels: true (active), false (inactive)

> print(dat)
                                 item.smiles    cat
 1  O=c1cc(Cc2ccccc2)[nH]c2nc(Cc3ccc(Cl)cc3)nn12   true
 2  Cc1ccc(Cc2nc3[nH]c(-c4ccccc4)cc(=O)n3n2)cc1   true
 3  O=c1cc(-c2ccccc2)[nH]c2nc(Cc3ccc(Cl)cc3)nn12   true
 4  O=c1cc(Cc2ccccc2)[nH]c2nc(Cc3ccc(F)cc3)nn12  false
 5  O=c1cc(-c2ccccc2)[nH]c2nc(Cc3ccccc3)nn12   true
 6     CCCCCCc1nc2[nH]c(-c3ccccc3)cc(=O)n2n1  false
 7  Cc1ccc(Cc2cc(=O)n3nc(-c4ccc(C)cc4)nc3[nH]2)cc1  false
 8  CCCCCc1nc2[nH]c(-c3ccc(Cl)cc3)cc(=O)n2n1   true
 9       CCCCc1nc2[nH]c(-c3ccccc3)cc(=O)n2n1  false
10  Cc1ccc(Cc2nc3[nH]c(Cc4ccccc4)cc(=O)n3n2)cc1   true
11  O=c1cc(Cc2ccc(Cl)cc2)[nH]c2nc(Cc3ccc(F)cc3)nn12   true
12  O=c1cc(Cc2ccc(Cl)cc2)[nH]c2nc(-c3ccccc3)nn12   true
13  Cc1ccc(-c2nc3[nH]c(Cc4ccc(F)cc4)cc(=O)n3n2)cc1  false
14      CCCCCc1nc2[nH]c(-c3ccccc3)cc(=O)n2n1  false
15  Cc1ccc(-c2nc3[nH]c(Cc4ccc(Cl)cc4)cc(=O)n3n2)cc1  false
16    CCCCCCCc1nc2[nH]c(-c3ccccc3)cc(=O)n2n1  false
17  O=c1cc(Cc2ccccc2)[nH]c2nc(Cc3ccccc3)nn12  false
18  Cc1ccc(Cc2nc3[nH]c(-c4ccc(Cl)cc4)cc(=O)n3n2)cc1  false
19  CCCCCCc1nc2[nH]c(-c3ccc(Cl)cc3)cc(=O)n2n1   true
20  Cc1ccc(Cc2cc(=O)n3nc(-c4ccccc4)nc3[nH]2)cc1  false
21  O=c1cc(-c2ccccc2)[nH]c2nc(Cc3ccc(F)cc3)nn12   true

###

# System: Mus musculus
# assay protocol: Anticonvulsant activity in Kunming mouse assessed as reduction in ScPTZ-induced seizure at 30 mg/kg, ip administered before 30 mins of ScPTZ stimulation
# Format: functional, organism-based
Activity calls are given as the source filed them. The rule behind the calls is not given here.
Outcomes: active, inactive

> print(dat)
                                 item.smiles       cat
 1    CCCCCCCc1nc2[nH]c(-c3ccccc3)cc(=O)n2n1  inactive
 2      CCCCCc1nc2[nH]c(-c3ccccc3)cc(=O)n2n1  inactive
 3  O=c1cc(Cc2ccccc2)[nH]c2nc(Cc3ccc(Cl)cc3)nn12  inactive
 4  O=c1cc(-c2ccccc2)[nH]c2nc(Cc3ccc(Cl)cc3)nn12    active
 5  O=c1cc(Cc2ccccc2)[nH]c2nc(Cc3ccc(F)cc3)nn12  inactive
 6  O=c1cc(-c2ccc(Cl)cc2)[nH]c2nc(Cc3ccccc3)nn12  inactive
 7  Cc1ccc(Cc2nc3[nH]c(-c4ccc(Cl)cc4)cc(=O)n3n2)cc1  inactive
 8  Cc1ccc(Cc2nc3[nH]c(-c4ccccc4)cc(=O)n3n2)cc1    active
 9  CCCCCCCc1nc2[nH]c(-c3ccc(Cl)cc3)cc(=O)n2n1  inactive
10     CCCCCCc1nc2[nH]c(-c3ccccc3)cc(=O)n2n1  inactive
11  Cc1ccc(Cc2cc(=O)n3nc(Cc4ccccc4)nc3[nH]2)cc1  inactive
